Assignment: determine reported polymerase ribozyme fitness (log ratio) for the given variants.
B1: TPR 5TU (parent)
chain: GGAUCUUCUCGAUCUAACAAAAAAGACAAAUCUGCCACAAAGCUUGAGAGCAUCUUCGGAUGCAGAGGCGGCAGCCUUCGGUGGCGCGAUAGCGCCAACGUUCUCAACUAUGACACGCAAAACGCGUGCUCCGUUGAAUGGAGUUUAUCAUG

- Variants of: B1
- PROTOCOL TEXT: polymerase ribozyme fitness, log enrichment relative to wild type (log ratio); higher = more active; in vitro selection for triplet polymerase activity
This sample holds only a part of the variants without activity.

Req: Consider the variant A21G G68A and give its recorded polymerase ribozyme fitness (log ratio).
Resp: -3.89

Req: Provide polymerase ribozyme fitness (log ratio) value for the following variant: U33C G59A A60U U145G
Resp: -4

Req: Name the recorded polymerase ribozyme fitness (log ratio) of the item G68C C79A G83U U101A U104C C108G A142G in your answer.
Resp: ≤ -4.2

Req: Supply recorded polymerase ribozyme fitness (log ratio) for U4A C43U G65U U77C U111G here.
Resp: ≤ -4.2

Req: Output polymerase ribozyme fitness (log ratio) of G58U C85A C95G C96U
Resp: -3.24

Req: Provide only the value of recorded polymerase ribozyme fitness (log ratio) for G59C G86A
Resp: -2.61

Req: For the variant A21G A106C , give its reported polymerase ribozyme fitness (log ratio).
Resp: -0.348

Req: Please supply the value of reported polymerase ribozyme fitness (log ratio) for the item C114U A147C
Resp: -2.83

Req: Please report the measured polymerase ribozyme fitness (log ratio) for G67U C76G G143A A150G
Resp: ≤ -4.2

Req: Please report polymerase ribozyme fitness (log ratio) for the following variant: C85A G136C
Resp: -4.19

Req: Return polymerase ribozyme fitness (log ratio) (reported value) for this variant: C8A A26U A49U G83U U101G C118U A138C
Resp: ≤ -4.2

Req: Specify measured polymerase ribozyme fitness (log ratio) for G92A U144C A147U .
Resp: -3.46

Req: Output polymerase ribozyme fitness (log ratio) of A21G C27G U33C G58C C96U A97U A106G G141U
Resp: ≤ -4.2

Req: Using the record for C35U A73U C75G C76G U90C , state its measured polymerase ribozyme fitness (log ratio).
Resp: ≤ -4.2

Req: Please report the measured polymerase ribozyme fitness (log ratio) for C10G C32A G86U G92C G124A A137G
Resp: ≤ -4.2

Req: Note polymerase ribozyme fitness (log ratio) for the variant shown: A20C C63G G152A
Resp: -2.4

Req: Respond only with polymerase ribozyme fitness (log ratio) recorded for A17U C18U C96G C125U
Resp: -1.1

Req: Check the records and state polymerase ribozyme fitness (log ratio) for A19G A37U U101G
Resp: -2.14

Req: Return reported polymerase ribozyme fitness (log ratio). Input variant: A28U A52G C85U G88A C95G U109G
Resp: ≤ -4.2

Req: Give the value of polymerase ribozyme fitness (log ratio) reported for the following: C5A C79A G88A A106C
Resp: ≤ -4.2

Req: Supply polymerase ribozyme fitness (log ratio) value. Item: G80A C93U U102A
Resp: -3.01

Req: Recall and state the measured polymerase ribozyme fitness (log ratio) for C57U U102A C103U .
Resp: -1.15

Req: Look up and report measured polymerase ribozyme fitness (log ratio) for this entry: C35U G50C
Resp: -3.9

Req: Look up polymerase ribozyme fitness (log ratio) of A19G A22G U31G A41U U44A A60C G81A G83C G84A U146A and report it.
Resp: ≤ -4.2

Req: Consider the variant U56C C76A A122G and give its recorded polymerase ribozyme fitness (log ratio).
Resp: -0.262

Req: Read the entry U9A A16G C54U C75U C76A A120U and write its reported polymerase ribozyme fitness (log ratio).
Resp: ≤ -4.2

Req: For the variant A52U C96A , give its reported polymerase ribozyme fitness (log ratio).
Resp: -2.92

Req: Tell me polymerase ribozyme fitness (log ratio) reported for A12G C57G G59A C96U U127G
Resp: -3.86

Req: Kindly indicate its recorded polymerase ribozyme fitness (log ratio). Item: A52G G94C
Resp: -1.32

Req: Tell me measured polymerase ribozyme fitness (log ratio) for C85A U148C please.
Resp: -2.22

Req: Give reported polymerase ribozyme fitness (log ratio) value for C54U C75G G81C U127A
Resp: ≤ -4.2

Req: Indicate its recorded polymerase ribozyme fitness (log ratio); the variant in question is C57U A64C A89U G128U U148A
Resp: ≤ -4.2

Req: Respond only with polymerase ribozyme fitness (log ratio) recorded for C8G A28U C87U C105U
Resp: ≤ -4.2

Req: Kindly indicate its recorded polymerase ribozyme fitness (log ratio). Item: C103G G117U
Resp: -0.61

Req: Determine its reported polymerase ribozyme fitness (log ratio): U31G C54U U101C
Resp: -0.138

Req: Give a short answer stating reported polymerase ribozyme fitness (log ratio) for A52U G136A .
Resp: -0.592

Req: Determine its reported polymerase ribozyme fitness (log ratio): C38U G136U
Resp: -2.3
